- system-tested: cynomologus (cyno) ENTPD2
- Sequence (as listed by the source): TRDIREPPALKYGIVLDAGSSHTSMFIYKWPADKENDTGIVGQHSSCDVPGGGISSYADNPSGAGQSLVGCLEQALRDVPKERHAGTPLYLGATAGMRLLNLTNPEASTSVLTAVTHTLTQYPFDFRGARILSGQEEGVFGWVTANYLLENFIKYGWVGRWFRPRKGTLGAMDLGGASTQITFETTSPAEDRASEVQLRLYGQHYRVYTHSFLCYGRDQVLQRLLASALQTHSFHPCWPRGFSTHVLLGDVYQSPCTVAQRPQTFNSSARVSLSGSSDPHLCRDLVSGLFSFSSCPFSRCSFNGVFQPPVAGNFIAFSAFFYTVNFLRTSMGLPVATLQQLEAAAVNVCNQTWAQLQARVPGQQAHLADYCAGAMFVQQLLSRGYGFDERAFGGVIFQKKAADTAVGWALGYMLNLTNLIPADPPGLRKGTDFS
- assay-details: Biacore (SPR) affinity to cyno ENTPD2 ECD
- Assay type: binding, cynomolgus monkey
- experimental-parameters: 25° C.
test-readout: kd (s⁻¹)

molecule="mAb3: humanized anti-human ENTPD2 antibody from mAb17; VH SEQ ID NO: 33, VL SEQ ID NO: 29 (antibody, V domains shown) VH: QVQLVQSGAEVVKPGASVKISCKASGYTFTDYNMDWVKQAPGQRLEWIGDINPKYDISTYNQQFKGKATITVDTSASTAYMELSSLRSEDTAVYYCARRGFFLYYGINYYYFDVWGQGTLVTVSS VL: EIVLTQSPATLSASPGERITLSCSASSSVSYIHWYQQKPGQAPRLLIYSTSNLASGIPARFSGSGSGTFYTLTISSVEPEDAAVYYCHQWSSYPWTFGGGTKLEIK" reading=0.00098
